- SYSTEM NAME: diazepam-insensitive [3H]Ro15-4513 binding sites (α4 and α6 GABAA receptors)
- PROTOCOL NOTES: [3H]Ro15-4513 binding to diazepam-insensitive sites, wild type mouse brain
- RUN PARAMETERS: α3 wild type controls, n=3
PROPERTY LABEL: pKd
// scale note: pKd = -log10(conc_M); give the bare number

## Input Using known records, supply pKd for CCOC(=O)c1ncn2c1CN(C)C(=O)c1cc(N=[N+]=[N-])ccc1-2 [Ro15-4513]
## Output 8.31
